The reported numbers originate from patent US20250034216A1.

Molecular target: NUDT16L1_C88 (Homo sapiens, UniProt Q9BRJ7)
Construct: endogenous in cells; host or cells: 22Rv1
Sequence (Q9BRJ7 whole entry): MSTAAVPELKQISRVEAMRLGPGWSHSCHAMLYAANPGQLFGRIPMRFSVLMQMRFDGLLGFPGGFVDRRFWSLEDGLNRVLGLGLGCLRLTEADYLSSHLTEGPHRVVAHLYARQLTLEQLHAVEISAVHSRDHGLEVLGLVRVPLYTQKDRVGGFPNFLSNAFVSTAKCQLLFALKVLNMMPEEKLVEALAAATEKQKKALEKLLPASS
Assay: IA-DTB cysteine engagement
Format: binding
Conditions: 22Rv1 cells, 20 μM probe, 1 h, relative to DMSO
Method: Sample preparation: Cells (adherent: 15 cm dishes, suspension: 2 million cells/mL) were treated with electrophilic probes in situ for indicated times and concentrations, washed with ice-cold PBS, and flash frozen in liquid nitrogen. […] Whole cell lysates protein content was measured using a standard DC protein assay (Bio-Rad) and 500 μL (2 mg/mL protein content) were treated with 5 μL of 10 mM 1A-DTB (in DMSO) for 1 h at ambient temperature with occasional vortexing. […]
Could you please report measured % engagement NUDT16L1_C88 for the items listed next?
Give bare numbers, in %.

Example cases with answers are listed next.
- COMPOUND: "C=CC(=O)N1C[C@H](c2ccc(Br)cc2)[C@@H]1C(=O)Nc1cccc2cccnc12 [MY-1B]"
  RESULT: 88.5
- COMPOUND: "C=CC(=O)N1C[C@@H](c2ccc(Br)cc2)[C@H]1C(=O)Nc1cccc2cccnc12 [MY-1A]"
  RESULT: 33.25
- COMPOUND: "C=CC(=O)N1C[C@H](c2ccc(Br)cc2)[C@H]1C(=O)Nc1cccc2cccnc12 [MY-3A]"
  RESULT: 14.5

For the next question, use this compound.
IN: Param readout = % engagement NUDT16L1_C88; param system = NUDT16L1_C88 (Homo sapiens, UniProt Q9BRJ7); param query = C=CC(=O)N1C[C@H](c2ccc(Br)cc2)[C@H]1C(=O)Nc1cccc2cccnc12 [MY-3B] ; response: value
OUT: 87.5
